Quick reference: ELISA of the listed items.
TARGET OR TEST SYSTEM: biotinylated SARS-CoV-2 S1 variant B.1.351 (Example 5) (SARS-CoV-2) (UniProt P0DTC2)
TEST PROTOCOL: phage ELISA screening
REPORTED METRIC: ELISA

{"columns": ["BINDER", "RESULT VALUE"],
 "data": [
  ["12-8 (antibody, V domains shown) VH: QVQLVESGGGVVQPGRSLRLSCAASGFTFNNYVMHWVRQAPGKGLEWVAVISYDGTNDYYADSVKGRFTISRDNSKNTLYLQMNSLRAEDTAVYYCARGESGSYWGAFDYWGQGTLVTVSS VL: EIVLTQSPATLSLSPGERATLSCRASQNIGNHLAWYQQKPGQAPRLLIYDVSNRATGIPARFSGSGSGTDFTLTISSLEPEDFAVYYCQQRKSWPPFTFGGGTKVEIK", 21.4],
  ["12-7 (antibody, V domains shown) VH: QVQLVESGGGVVQPGRSLRLSCAASGFTFSIYAMHWVRQAPGKGLEWVAVISYDGTNEYYADSVKGRFTISRDNSKNTLYLQMNSLRAEDTAVYYCAKSRGGSYYGAFDYWGQGTLVTVSS VL: EIVLTQSPATLSLSPGERATLSCRASQSLGNYLAWYQQKPGQAPRLLIYDSSNRATGIPARFSGSGSGTDFTLTISSLEPEDFAVYYCQQRTDWPPSFGGGTKVEIK", 22.2],
  ["12-36 (antibody, V domains shown) VH: QVQLVESGGGVVQPGRSLRLSCAASGFSFNNYGMHWVRQAPGKGLEWVAVISYDGSNDYYADSVKGRFTISRDNSKNTLYLQMNSLRAEDTAVYYCARPNSGSYSNYFDYWGQGTLVTVSS VL: EIVLTQSPATLSLSPGERATLSCRASQGISTYLAWYQQKPGQAPRLLIYDASNRATGIPARFSGSGSGTDFTLTISSLEPEDFAVYYCQQRRRWPPTFGGGTKVEIK", 5.51],
  ["11-16 (antibody, V domains shown) VH: QVQLVESGGGVVQPGRSLRLSCAASGFTFSDHYMHWVRQAPGKGLEWVAVISYDGSNEYYADSVKGRFTISRDNSKNTLYLQMNSLRAEDTAVYYCAKDLGPAGVDYWGQGTLVTVSS VL: EIVLTQSPATLSLSPGERATLSCRASQSLGRYLAWYQQKPGQAPRLLIYDSSNRATGIPARFSGSGSGTDFTLTISSLEPEDFAVYYCQQYGDWPETFGGGTKVEIK", 4.65],
  ["12-19 (antibody, V domains shown) VH: QVQLVESGGGVVQPGRSLRLSCAASGFAFSSYAMHWVRQAPGKGLEWVAVISYDGTYEYYADSVKGRFTISRDNSKNTLYLQMNSLRAEDTAVYYCARSLGGSYFSGMDVWGQGTLVTVSS VL: EIVLTQSPATLSLSPGERATLSCRASQSISRYLAWYQQKPGQAPRLLIYDVSNRATGIPARFSGSGSGTDFTLTISSLEPEDFAVYYCQQSSNWPLFTFGGGTKVEIK", 13.8]
]}

// data source = patent US20230192818A1
